protocol summary: Pharmacokinetics in mouse
stated conditions: mouse, in vivo; read-out: t 1/2β
observable: half-life

QUERY: So what's the measured half-life for this one? "C[C@@H](O)[C@H]1C(=O)N2C(C(=O)[O-])=C(COc3ccc(C[n+]4ccccc4)cc3)S[C@H]12"
RESULT: 27 min
